Measured values drawn from patent US12538924B2 for this set.

test system: Euschistus heros (Neotropical Brown Stink Bug); test: Euschistus heros (Neotropical Brown Stink Bug), sprayed soybean leaves; assay type: in vivo; conditions: 120 h, application rate of 200 ppm, N2 nymphs on sprayed soybean leaves, 5 days after infestation, read-out: effect in at least one of the two categories (mortality or growth inhibition)
Listed next: entries and their corresponding percent effect (mortality or growth inhibition) at 200 ppm.

In the examples that follow, each entry is paired with its recorded percent effect (mortality or growth inhibition) at 200 ppm.
Q: Give percent effect (mortality or growth inhibition) at 200 ppm for the following compound: `CCS(=O)(=O)c1cc(-n2ccc(Cl)n2)cnc1N1Cc2cnc(C(F)(F)F)cc2C1=O`
A: ≥ 80%

Q: Give percent effect (mortality or growth inhibition) at 200 ppm for the following compound: `CCS(=O)(=O)c1ccc(N(C)C(=O)NC)nc1N1Cc2cnc(C(F)(F)F)cc2C1=O`
A: ≥ 80%

Now for another entry.
Q: Give percent effect (mortality or growth inhibition) at 200 ppm for the following compound: `CCS(=O)(=O)c1ccc(N(C)C(C)=O)nc1N1Cc2cnc(C(F)(F)F)cc2C1=O`
A: ≥ 80%

* * *

system: Diabrotica Balteata (Corn Root Worm); assay: Diabrotica balteata (Corn Root Worm), sprayed maize sprouts; format: in vivo; conditions: 96 h, application rate of 200 ppm, L2 larvae on sprayed maize sprouts, 4 days after infestation, read-out: effect in at least one of the two categories (mortality or growth inhibition)
REPORTED ENDPOINT: percent effect (mortality or growth inhibition) at 200 ppm

Q: Give percent effect (mortality or growth inhibition) at 200 ppm for the following compound: CCS(=O)(=O)c1ccc(N2CCOC2=O)nc1N1Cc2cnc(C(F)(F)F)cc2C1=O [Compound P17]
A: ≥ 80%

Q: Give percent effect (mortality or growth inhibition) at 200 ppm for the following compound: CCS(=O)(=O)c1cc(-n2ccc(Cl)n2)cnc1N1Cc2cnc(C(F)(F)F)cc2C1=O [Compound P13]
A: ≥ 80%

---
Q: Give percent effect (mortality or growth inhibition) at 200 ppm for the following compound: CCS(=O)(=O)c1cccnc1N1Cc2ncc(C(F)(F)F)cc2C1=O [Compound P22]
A: ≥ 80%

* * *

system: Nilaparvata lugens (Brown Plant Hopper); assay: Nilaparvata lugens (Brown Plant Hopper): Larvicide, Systemic into Water; type: in vivo; settings: 168 h, test rate of 12.5 ppm, rice plants in nutritive solution, N3 nymphs, 7 days after infestation
REPORTED ENDPOINT: mortality at 12.5 ppm

Q: Give mortality at 12.5 ppm for the following compound: CCS(=O)(=O)c1cc(C(C)(C)C#N)cnc1N1Cc2cnc(C(F)(F)F)cc2C1=O [Compound P2]
A: ≥ 80%

---
Q: Give mortality at 12.5 ppm for the following compound: CCS(=O)(=O)c1cccnc1N1Cc2cnc(C(F)(F)F)cc2C1=O [Compound P1]
A: ≥ 80%

Q: Give mortality at 12.5 ppm for the following compound: `CCS(=O)(=O)c1ccc(N(C)C(=O)NC)nc1N1Cc2cnc(C(F)(F)F)cc2C1=O`
A: ≥ 80%

Q: Give mortality at 12.5 ppm for the following compound: `CCS(=O)(=O)c1cc(C2(C#N)CC2)cnc1N1Cc2cnc(C(F)(F)F)cc2C1=O`
A: ≥ 80%

Q: Give mortality at 12.5 ppm for the following compound: `CCS(=O)(=O)c1cc(C(F)(F)F)cnc1N1Cc2cnc(C(F)(F)F)cc2C1=O`
A: ≥ 80%
